measurementProtocol: ATG_TCF_b_cat_CIS: Attagene CIS-FACTORIAL HepG2 Assay for human T-Cell-Factor with beta-catenin (TCF/b-cat) (AID 2282965)
measurementContext: HepG2 TCF/beta-catenin cis-reporter transcription, actives raise or lower the signal
The source made the active and inactive calls. How the source made its calls: active means hit-call score of the fitted dose curve at least 0.9, where 1 is the maximum; inactive means score below 0.9.
// classify into yes (active), no (inactive)

CC1(C)[C@@H]2CC[C@@]1(C)C(=O)C2	no

[ask] Dear all, I need the recorded test outcome for CC(C)CO , thank you.
[reply] no

[ask] Ok, now CC(CC=O)CC(C)(C)C (stereo unspecified)
[reply] no

[ask] Please give the result for CCOB(OCC)OCC too.
[reply] no

[ask] Follow-up entry: CCCCCCCCC(CO)CCCCCC (stereo unspecified)
[reply] no

[ask] Another compound to look at: CC1=CP(=O)(c2ccccc2)CC1 (stereo unspecified)
[reply] no

[ask] What do we get for CCOC(=O)C1=NOC(c2ccccc2)(c2ccccc2)C1 ?
[reply] no

[ask] Try the compound CCOC(=O)C1=NN(c2ccc(Cl)cc2Cl)C(C)(C(=O)OCC)C1 (stereo unspecified)
[reply] no

[ask] Next compound: CCCCC1CCC(=O)O1 (stereo unspecified)
[reply] no

[ask] Now try CC1=C(O)C(=O)C(C)O1 (stereo unspecified) .
[reply] no

[ask] Item: C=CC(=O)OCCCCCCCC(C)C
[reply] no

[ask] Cool, now CCCCC1C(=O)N(c2ccccc2)N(c2ccccc2)C1=O
[reply] no

[ask] Then this compound: CCc1occc(=O)c1O
[reply] no

[ask] Repeat for the following compound: C[N+](C)(C)CCCNS(=O)(=O)C(F)(F)C(F)(F)C(F)(F)C(F)(F)C(F)(F)C(F)(F)C(F)(F)C(F)(F)F
[reply] no

[ask] # repeat for N#Cc1ccc(C(c2ccc(C#N)cc2)n2cncn2)cc1
[reply] no

[ask] Here is the next compound: CC(C)(C)N
[reply] no

[ask] Here is the next compound: CCOC(=O)c1ccc(C)cc1
[reply] no

###

measurementProtocol: ATG_E_Box_CIS: Attagene CIS-FACTORIAL HepG2 Assay for human Enhancer Box (E-box) (AID 2282936)
measurementContext: HepG2 E-box cis-reporter transcription, actives raise or lower the signal
Calls of active or inactive are those of the source. Rule for the calls: active = hit-call score of the fitted dose curve at least 0.9, where 1 is the maximum; inactive = score below 0.9. Peptide text beside a SMILES is read from it.
Assign a class; possible classes are active, inactive

Below, 2 molecules whose answers are already recorded.
COC(=O)[C@H](Cc1ccccc1)NC(=O)[C@@H](N)CC(=O)O (H-Asp-Phe-OMe)	inactive
CC(C)c1ccc2ncccc2c1	inactive

[ask] What was the test verdict on CCCC/C=C/C=C\C=O ?
[reply] inactive

[ask] Would you kindly repeat that for CCCC(CC)c1ccccc1 (centres undefined) ?
[reply] inactive

[ask] Okay, and CC1=CCC(C(C)C)C=C1 (centres undefined) ?
[reply] inactive

[ask] What about CCC(C)(O)CCCC(C)C (centres undefined) ?
[reply] inactive

[ask] And for O=C(Cl)c1ccc(C(=O)Cl)cc1 ?
[reply] inactive

[ask] One more molecule: CCN1CCCC1=O
[reply] inactive

[ask] Same read-out for CC(C)COC(=O)CC(C(=O)OCC(C)C)S(=O)(=O)O (centres undefined) ?
[reply] inactive

[ask] Now the molecule C=CC(=O)NCOCCCC
[reply] inactive

[ask] Another molecule to look at: C=CC(=O)NC(C)(C)C
[reply] inactive

[ask] Queued: CC1CCC(C(C)(C)S)C(=O)C1 (centres undefined)
[reply] inactive

[ask] Now consider CC1(C)[C@@H]2CC[C@@]1(C)C(=O)C2 .
[reply] inactive

[ask] Same question for COc1ccc(C(=O)c2ccccc2)c(O)c1 please.
[reply] inactive

[ask] Subsequent entry: CC1(C)CC(O)CC(C)(C)N1[O]
[reply] inactive

[ask] Param item: CC(C)=CCl
[reply] inactive

[ask] Param item: CC(=O)OCC=C(C)C
[reply] inactive

[ask] Same thing, different molecule: CCOB(OCC)OCC
[reply] inactive

[ask] Param item: C=C(C)OC(C)=O
[reply] inactive

[ask] Same thing, different molecule: Cc1cc(C)c(C=O)c(C)c1
[reply] inactive

[ask] What about O=C(O)CC(C(=O)O)S(=O)(=O)O (centres undefined) ?
[reply] inactive

[ask] And what about the molecule CC(CC=O)CC(C)(C)C (centres undefined) ?
[reply] inactive

[ask] What about this molecule? CCCCC(CC)COC(=O)/C=C/c1ccc(OC)cc1 (centres undefined)
[reply] inactive

###

testedOn: Cellular tumor antigen p53 (Homo sapiens) (UniProt P04637)
Sequence (P04637 whole entry, looked up): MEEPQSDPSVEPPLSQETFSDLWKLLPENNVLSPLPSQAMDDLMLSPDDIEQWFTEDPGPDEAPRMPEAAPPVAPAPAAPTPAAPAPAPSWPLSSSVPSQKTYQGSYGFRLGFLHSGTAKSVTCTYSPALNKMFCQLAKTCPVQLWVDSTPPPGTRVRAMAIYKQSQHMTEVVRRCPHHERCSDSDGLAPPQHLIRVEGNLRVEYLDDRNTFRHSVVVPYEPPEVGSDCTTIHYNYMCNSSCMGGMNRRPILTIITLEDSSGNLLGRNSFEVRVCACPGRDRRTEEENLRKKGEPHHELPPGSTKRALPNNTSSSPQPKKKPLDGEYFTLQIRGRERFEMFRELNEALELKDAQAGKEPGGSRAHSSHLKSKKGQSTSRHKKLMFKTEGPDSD
measurementProtocol: TOX21_p53_BLA_p3_ratio: Tox21 HCT-116 p53 Agonism Beta-lactamase Assay, Ratio, Phase 3 (AID 2283596)
Records with an inconclusive call do not appear. Calls of active or inactive are those of the source. The calls were made as follows: active = hit-call score of the fitted dose curve at least 0.9, where 1 is the maximum; inconclusive = response in the unintended direction; inactive = score below 0.9.
Could you please pick one outcome from this set? active, inactive

Consider the worked cases shown below.
Nc1ncnc2nc[nH]c12	inactive
O=C(O)c1ccc2c(c1)C(=O)OC2=O	inactive
CC1CC(=O)CC(C)(C)C1 (stereo unspecified)	inactive
O=C(Cl)c1ccc(C(=O)Cl)cc1	inactive

[ask] Entry CCCCCCOc1ccc(N)cc1 : call = ?
[reply] inactive

###

measurementProtocol: ATG_TGFb_CIS: Attagene CIS-FACTORIAL HepG2 Assay for human Transforming Growth Factor (TGF) (AID 2282967)
measurementContext: HepG2 Attagene CIS TGFb reporter, mRNA transcription; actives raise or lower the signal
Calls of active or inactive are those of the source. How the source made its calls: active means hit-call score of the fitted dose curve at least 0.9, where 1 is the maximum; inactive means score below 0.9.
Use one of these outcomes when replying: active, inactive

Example entries and their recorded answers appear below.
CC1=CP(=O)(c2ccccc2)CC1 (configuration not stated)	inactive
COc1ccc(C(=O)c2ccccc2)c(O)c1	active
CC(=O)OCCc1ccccc1	inactive
Cc1ccc([N+](=O)[O-])cc1N	inactive
Cc1ccccc1CCO	inactive
CCCCCCCCCCCCC	inactive
CCCCCCCCCCCC(C)=O	active
CC(CC(C)C)=NO	inactive
COc1cc(C)ccc1O	inactive
C=CC(C)(CCC=C(C)C)OC(=O)C=Cc1ccccc1 (configuration not stated)	inactive

[ask] Called result for C1CNCCN1
[reply] inactive

[ask] What would you report for COc1ccc(C(=O)/C(Br)=C\C(=O)O)cc1 ?
[reply] inactive

[ask] Nc1ccc(C(=O)OCCCOC(=O)c2ccc(N)cc2)cc1 ?
[reply] inactive

[ask] // query: CCCCCCCC(=O)OCC(COC(=O)CCCCCCC)OC(=O)CCCCCCC
[reply] inactive

[ask] Then what about the molecule O=C(Oc1ccccc1)c1ccccc1O ?
[reply] inactive

[ask] And the next one, O=C(Cl)c1c(Cl)c(Cl)c(C(=O)Cl)c(Cl)c1Cl ?
[reply] active

[ask] Please do the same for CCCCNS(=O)(=O)c1ccccc1 as well.
[reply] inactive

[ask] Another molecule to check: CC(=O)OCC=C(C)C
[reply] inactive

[ask] Also Oc1c(Cl)cc(Cl)c(Cl)c1Cl , if possible.
[reply] inactive

###

Read-out: Matrix Metallopeptidase 9 (MMP9), MMP9 (gene 4318)
measurementProtocol: BSK_KF3CT_MMP9: BioMAP Diversity Plus: KF3CT Assay for Matrix Metallopeptidase 9 (MMP9) Biomarker Activity (AID 2283074)
measurementContext: primary human keratinocytes with fibroblasts; actives raise or lower the signal
Activity calls are given as the source filed them. The calls were made as follows: active = hit-call score of the fitted dose curve at least 0.9, where 1 is the maximum; inactive = score below 0.9.
Please state which outcome applies, choosing from active, inactive

CCOC(=O)C1=NN(c2ccc(Cl)cc2Cl)C(C)(C(=O)OCC)C1 (stereo unspecified)	inactive

[ask] Recorded call for CC=C(C)C=CC=C(C)C ?
[reply] active

[ask] Consider next the compound C=C(C)C(=O)OCCCCCCCCCCCC in the same way.
[reply] inactive

[ask] Also Fc1ccc(Br)cc1 , if possible.
[reply] inactive

[ask] Next record, please: CCCC(C)C(=O)OCC (stereo unspecified)
[reply] inactive

[ask] COc1ccc(C(=O)c2ccccc2)c(O)c1 , same question.
[reply] active

[ask] Would you mind doing CCOC(=O)C1=NOC(c2ccccc2)(c2ccccc2)C1 as well?
[reply] inactive

###

Read-out: E-selectin (Homo sapiens)
measurementProtocol: BSK_SAg_Eselectin: BioMAP Diversity Plus: SAg Assay for Eselectin Biomarker Activity (AID 2283091)
measurementContext: primary human HUVEC with PBMC; actives raise or lower the signal
Activity calls are given as the source filed them. Rule for the calls: active = hit-call score of the fitted dose curve at least 0.9, where 1 is the maximum; inactive = score below 0.9.
Hi there, use one of these labels in your reply, thanks! Y for active, N for inactive

Please review the entries below; each comes with its answer.
CCCCCCCCCCCC(=O)N(C)CC(=O)O	N
COc1ccc(C(=O)c2ccccc2)c(O)c1	N
CC(c1cc(C(C)(C)C)cc(C(C)(C)C)c1O)c1cc(C(C)(C)C)cc(C(C)(C)C)c1O	N
CC1=CC=C(C(C)C)CC1	N
COC(OC)(C(=O)c1ccccc1)c1ccccc1	N
CC=C(C)C=CC=C(C)C	Y

Alright, here's another molecule for you.
[ask] Which result was noted for this molecule in the test: C=CC(=O)NC(C)(C)C
[reply] N
